Property: pIC50; scope: individual compounds
Study Target: Leishmania infantum TR (LiTR) (Leishmania infantum)
Sequence (A4HSF7 1-491): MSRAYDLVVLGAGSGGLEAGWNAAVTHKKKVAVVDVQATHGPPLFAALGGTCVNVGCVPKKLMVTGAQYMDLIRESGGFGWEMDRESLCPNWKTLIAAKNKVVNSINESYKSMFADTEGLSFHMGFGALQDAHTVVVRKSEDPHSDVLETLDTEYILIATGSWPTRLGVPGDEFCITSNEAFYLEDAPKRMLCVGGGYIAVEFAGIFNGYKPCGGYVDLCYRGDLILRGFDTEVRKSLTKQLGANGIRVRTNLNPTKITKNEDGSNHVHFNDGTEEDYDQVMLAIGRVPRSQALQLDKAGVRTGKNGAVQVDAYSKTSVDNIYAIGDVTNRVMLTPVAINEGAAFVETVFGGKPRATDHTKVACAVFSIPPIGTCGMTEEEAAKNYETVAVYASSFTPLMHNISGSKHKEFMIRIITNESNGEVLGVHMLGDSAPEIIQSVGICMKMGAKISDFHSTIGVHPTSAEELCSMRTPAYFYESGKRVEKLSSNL
pIC50: −log10 of the molar value.
Measurement Label: pIC50

>>> endpoint_value("C[N+]1(CCCc2ccccc2)CCN(C(=O)N(Cc2ccc(C(=O)NCCc3ccc(F)cc3)o2)c2ccc(F)cc2)CC1.[I-] [Compound 9]")
4.69
>>> endpoint_value("O=C(NCCc1ccc(F)cc1)c1ccc(CNC(=O)N2CC[N+](CCCc3ccccc3)(Cc3ccc(Cl)c(Cl)c3)CC2)o1.[I-] [Compound 14]")
5.63
>>> endpoint_value("O=C(NCCc1ccc(F)cc1)c1ccc(CN(C(=O)N2CC[N+](CCCc3ccccc3)(Cc3ccc(Cl)c(Cl)c3)CC2)c2ccc(F)cc2)o1.[I-] [Compound 10]")
5.88
>>> endpoint_value("O=C(NCCc1ccc(F)cc1)c1ccc(CN(C(=O)N2CCN(CCCN3c4ccccc4Sc4ccc(Cl)cc43)CC2)c2ccc(F)cc2)o1 [Compound 6]")
4.66
>>> endpoint_value("O=C(NCCc1ccc(F)cc1)c1ccc(CN(C(=O)N2CCN(CCCc3ccccc3)CC2)c2ccc(F)cc2)o1 [Compound 5]")
4.26

These entries and their values trace back to paper PMC10788915.
